Target: Pyruvate kinase (Leishmania mexicana)
Assay: qHTS Validation Assay for Inhibitors of Leishmania Mexicana Pyruvate Kinase (AID 945);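 note: 0% = DMSO only neutral control wells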
Details: purified L. mexicana pyruvate kinase, enzyme activity, E451W mutant enzyme; series mostly up to 57.5 µM
Calls of active or inactive are those of the source. Calls come from the whole dose curve; as a rule, active = well fitted inhibition curve with a large enough effect; inconclusive = small, poorly fitted or top-dose-only effect; inactive = no such curve, though single readings can be large or run the other way.
measurement-label: outcome

molecule: C=CCN1CC[C@@]23c4c5ccc(O)c4O[C@H]2/C(=N\N=C2/CC[C@@]4(O)[C@H]6Cc7ccc(O)c8c7[C@@]4(CCN6CC=C)[C@@H]2O8)CC[C@]3(O)[C@@H]1C5
measurement: inactive
//
molecule: Oc1ccc2c3c1O[C@H]1c4[nH]c5ccccc5c4C[C@]4(O)[C@H](C2)N(CC2CC2)CC[C@@]314
measurement: inactive
//
molecule: NC[C@H](CP(=O)(O)O)c1ccc(Cl)cc1
measurement: inactive
//
molecule: O=C1NCN(c2ccccc2)C12CCN(C[C@H]1COc3ccccc3O1)CC2
measurement: inactive
//
molecule: C[C@H](N)Cc1c[nH]c2ccc(O)cc12
measurement: inactive

What does the data say about its outcome? Entry: CN1[C@@H]2CC[C@H]1CC(O[C@@H](c1ccccc1)c1ccc(Cl)cc1)C2 (stereo partly drawn)
inactive

What does the data say about its outcome? Entry: "c1ccc2c(c1)OC[C@@H](C1=NCCN1)O2"
inactive

====

System: Zika virus NS2B-NS3 protease (linked construct)
Experiment: Primary screen NINDS Rhodamine qHTS for Zika virus inhibitors (AID 1347160); note: nearly all actives have a fitted effect of over 55% in size
Conditions: purified NS2B-NS3 protease, Rhodamine110 substrate fluorescence; series mostly up to 57.1 µM
Excerpt: Avindra Nath, Ph.D., National Institute of Neurological Disorders and Stroke (NINDS), Bethesda, MD Radhakrishnan Padmanabhan, Ph.D., Georgetown University (GU), Washington D.C. Zika Virus causes congenital defects, including microcephaly and is associated with Guillain-Barre syndrome, eningoencephalitis and myelitis in infected adult. […]
Results filed as inconclusive are left out. The source made the active and inactive calls. The call rests on the fitted dose curve; in most records, active means well fitted inhibition curve with a large enough effect; inconclusive means small, poorly fitted or top-dose-only effect; inactive means no such curve, though single readings can be large or run the other way.
Allowed answers: t for active, f for inactive

Field: outcome | Entry: "CCOP(=O)(OCC)Oc1ccc2c(C)cc(=O)oc2c1"
f

Field: outcome | Entry: "C[N@@+]1(CC2CC2)CC[C@]23c4c5ccc(O)c4O[C@H]2C(=O)CC[C@@]3(O)[C@H]1C5"
f

Field: outcome | Entry: "Cc1c(Cl)c(OCC(=O)N2CCN(C)CC2)nc2sc(C(=O)NC3CC3)c(N)c12"
f

Field: outcome | Entry: "CCCCCn1cc(C(=O)C2C(C)(C)C2(C)C)c2ccccc21"
f

Field: outcome | Entry: COC(=O)[C@]12CCCC(C)(C)C1CCc1cc(C(C)C)c(O)c(O)c12 (stereo partly drawn)
t

Field: outcome | Entry: C[C@]12CC[C@H](O[C@@H]3O[C@H](CO)[C@@H](O)[C@H](O)[C@H]3O)CC1=CC[C@@H]1C2CC[C@]2(C)[C@@H](C3=CC(=O)OC3)CC[C@]12O (stereo partly drawn)
f

Field: outcome | Entry: CO[C@H]1C[C@H](O[C@H]2CC[C@@]3(C)C(=CCC4C3CC[C@]3(C)[C@@H](C5=CC(=O)OC5)CC[C@]43O)C2)O[C@@H](C)[C@@H]1O[C@@H]1O[C@H](CO[C@@H]2O[C@H](CO)[C@@H](O)[C@H](O)[C@H]2O)[C@@H](O)[C@H](O)[C@H]1O (stereo partly drawn)
f

Field: outcome | Entry: C[C@]12CC(O)C3[C@@H](CCC4C[C@@H](O)CC[C@@]43CO)[C@@]1(O)CCC2C1=CC(=O)OC1 (stereo partly drawn)
t

====

Assay: qHTS for Inhibitors of the Functional Ribonucleoprotein Complex (vRNP) of Lassa (LASV) Arenavirus: LASV Primary Screen - GLuc reporter signal (AID 1347082); note: % is set by controls: 0 for no effect and ±100 for the full control effect; nearly all actives have a fitted effect of over 60% in size
Conditions: LASV minigenome vRNP, Gaussia luciferase reporter; series mostly up to 57.5 µM
Records with an inconclusive call do not appear. The source made the active and inactive calls. Calls come from the whole dose curve; tested in HEK293 reporter line.
Field: activity change, negative = inhibition. Provide a value for each of the compounds that follow.

What does the data say about its activity change, negative = inhibition? Entry: "NC(=O)[C@H]1CCCN1C(=O)[C@H](Cc1cnc[nH]1)NC(=O)[C@@H]1CCC(=O)N1"
10.2% [at 5.82 µM] (inactive)

What does the data say about its activity change, negative = inhibition? Entry: "CCCCC[C@H](O)/C=C/C=C/C/C=C\CCCC(=O)O"
-30.5% [at 0.757 µM] (inactive)

What does the data say about its activity change, negative = inhibition? Entry: "CC(C)(C)[C@H](NC(=O)c1ccc(N)c(Cl)c1)C(=O)N1CCC[C@@H]1C(=O)N[C@H](C#N)CC(=O)O"
-4.12% [at 5.82 µM] (inactive)

What does the data say about its activity change, negative = inhibition? Entry: "CCCCC/C=C\C/C=C\C[C@H](O)/C=C/C=C\CCCC(=O)O"
6.73% [at 0.757 µM] (inactive)

What does the data say about its activity change, negative = inhibition? Entry: "C[C@]12O[C@H](C[C@@]1(O)C(=O)O)n1c3ccccc3c3c4c(c5c6ccccc6n2c5c31)CNC4=O"
-19.8% [at 5.82 µM] (inactive)

What does the data say about its activity change, negative = inhibition? Entry: "CCCCCCCCCCCCCCCC(N)=O"
1.8% [at 5.82 µM] (inactive)

What does the data say about its activity change, negative = inhibition? Entry: "CCCCC/C=C\C/C=C\C/C=C\CCCCCCC(=O)O[C@H](COCCCCCCCCCCCCCCCC)COP(=O)([O-])OCC[N+](C)(C)C"
-13.6% [at 5.82 µM] (inactive)

What does the data say about its activity change, negative = inhibition? Entry: "O=C(O)CCC/C=C\C/C=C\C=C\[C@@H](O)C/C=C\CCCCCO"
7.21% [at 0.757 µM] (inactive)

What does the data say about its activity change, negative = inhibition? Entry: CC/C=C\C/C=C\C/C=C\C/C=C\C=C\C(O)CCCC(=O)O (centres undefined)
1.12% [at 0.757 µM] (inactive)

What does the data say about its activity change, negative = inhibition? Entry: "C=C/C(=C/C(=O)C[C@H](C)C[C@@H](C)CC[C@H](O)[C@H](C)C(=O)C[C@@H](O)[C@H](C)[C@@H](C)OC(=O)C[C@@H](O)C1=C(C)C(=O)OC1=O)CC"
-47.1% [at 11.5 µM] (inactive)

What does the data say about its activity change, negative = inhibition? Entry: "CCCCC[C@H](O)/C=C/[C@H]1OC(=O)C[C@H](O)[C@@H]1C/C=C\CCCC(=O)O"
4.7% [at 5.82 µM] (inactive)

What does the data say about its activity change, negative = inhibition? Entry: "CCCCC[C@H](O)/C=C/C=C\C/C=C\C=C\[C@@H](O)CCCC(=O)O"
2.34% [at 0.757 µM] (inactive)

What does the data say about its activity change, negative = inhibition? Entry: CCCCC[C@H](O)/C=C/[C@H]1OC(O)C[C@H](O)[C@@H]1C/C=C\CC(=O)O (some centres undefined)
-6.19% [at 0.757 µM] (inactive)

What does the data say about its activity change, negative = inhibition? Entry: COc1ccc(CC2c3cc(OC)c(OC)cc3CC[N+]2(C)CCC(=O)OCCCCCOC(=O)CC[N+]2(C)CCc3cc(OC)c(OC)cc3C2Cc2ccc(OC)c(OC)c2)cc1OC (centres undefined)
-1.71% [at 11.5 µM] (inactive)

What does the data say about its activity change, negative = inhibition? Entry: COC1[C@@H](OC)C[C@H](C)[C@@H](OC)C2=CC(=O)C=C(NC(=O)/C(C)=C/C=C\[C@H](OC)[C@@H](OC(N)=O)/C(C)=C/[C@@H]1C)C2=O (some centres undefined)
1.65% [at 5.82 µM] (inactive)

What does the data say about its activity change, negative = inhibition? Entry: "CC/C=C\C[C@H](O)/C=C/C=C\C/C=C\C/C=C\CCCC(=O)O"
-0.193% [at 0.757 µM] (inactive)

What does the data say about its activity change, negative = inhibition? Entry: "CCCCC/C=C\C\C=C/C=C/C=C/[C@@H](O)[C@@H](O)CCCC(=O)O"
-2.59% [at 0.757 µM] (inactive)

What does the data say about its activity change, negative = inhibition? Entry: CCCCC/C=C\C[C@@H]1O[C@H]1C(O)/C=C\C/C=C\CCCC(=O)O (some centres undefined)
2.65% [at 0.757 µM] (inactive)

What does the data say about its activity change, negative = inhibition? Entry: "C[C@@H](O)CCC[C@H](O)/C=C/[C@H]1[C@H](O)CC(=O)[C@@H]1C/C=C\CCCC(=O)O"
-72.5% [at 5.82 µM] (inactive)

====

System: Nanoluciferase (engineered Oplophorus gracilirostris luciferase)
Assay: Primary Nanoluciferase (NLuc) qHTS assay for identification of artifact compounds. (AID 1845222);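 note: NLuc secreted into diluted conditioned medium of S16 cells; 0% = DMSO and -100% = no enzyme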
Settings: NLuc-conditioned medium, Nano-Glo luminescence, 5 min; series mostly up to 54.1 µM
Active and inactive are the calls of the source. The call rests on the fitted dose curve; in most records, active means well fitted inhibition curve with a large enough effect; inconclusive means small, poorly fitted or top-dose-only effect; inactive means flat fitted curve, though single readings scatter.
measurement-label: activity, negative = inhibition

Solved cases (6 shown):
compound: C[C@H]1C/C=C/[C@H]2[C@@H]3O[C@]3(C)[C@@H](C)[C@H]3[C@H](Cc4ccccc4)NC(=O)[C@]32OC(=O)O/C=C/[C@@](C)(O)C1=O
measurement: inactive

compound: CC(O)(c1ccccc1)C(Cc1ccc(Cl)cc1)n1cncn1 (stereo not given)
measurement: inactive

compound: COCC(C(=O)OC1CC2CCC(C1)N2C)c1ccccc1 (stereo not given)
measurement: inactive

compound: CN1Cc2c(ccc3c2OCO3)[C@@H]2[C@H]1c1cc3c(cc1C[C@@H]2O)OCO3
measurement: inactive

compound: COC1C(O)C(C)OC(OC2C(CO)O[C@@H](O[C@@H]3CC4CCC5C(CC[C@]6(C)[C@@H](C7=CC(=O)OC7)CC[C@]56O)[C@@]4(C)[C@H](OC(C)=O)C3)C(O)C2O)C1O (stereo not given in full)
measurement: inactive

compound: CCC1C2CC3C4N(C)c5ccccc5C45CC(C2C5O)N3C1O (stereo not given)
measurement: inactive

What does the data say about its activity, negative = inhibition? Entry: Cc1cccc(NC(=O)NC2N=C(c3ccccc3)c3ccccc3N(CC(=O)c3ccccc3C)C2=O)c1 (stereo not given)
inactive
